MIC for assorted molecules
test system: Staphylococcus aureus; assay: Antibacterial activity against methicillin-sensitive Staphylococcus aureus ATCC 29213 assessed as inhibition of bacterial growth by CLSI based micro broth double dilution method; format: functional
Number in µg/mL, nothing else.

| LINE NOTATION | MEASURED ON | MIC / µg/mL |
| --- | --- | --- |
| CC[C@H]1OC(=O)[C@@](C)(F)C(=O)[C@H](C)[C@@H](O[C@@H]2O[C@H](C)C[C@H](N(C)C)[C@H]2O)[C@@](C)(OC)C[C@@H](C)C(=O)[C@H](C)[C@H]2N(CCCn3ccc(=O)c4ccccc43)C(=O)O[C@]12C | Staphylococcus aureus | 0.12 |

Query (molecule): "CC[C@H]1OC(=O)[C@@](C)(F)C(=O)[C@H](C)[C@@H](O[C@@H]2O[C@H](C)C[C@H](N(C)C)[C@H]2O)[C@@](C)(OC)C[C@@H](C)C(=O)[C@H](C)[C@H]2N(CCCOc3ccnc4ccccc34)C(=O)O[C@]12C" ; field requested: MIC
1

Again, but for "CC[C@H]1OC(=O)[C@@](C)(F)C(=O)[C@H](C)[C@@H](O[C@@H]2O[C@H](C)C[C@H](N(C)C)[C@H]2O)[C@@](C)(OC)C[C@@H](C)C(=O)[C@H](C)[C@H]2N(CCCNc3ccnc4ccccc34)C(=O)O[C@]12C"
0.12

Again, but for "CCCCN(CCCN1C(=O)O[C@]2(C)[C@@H](CC)OC(=O)[C@@](C)(F)C(=O)[C@H](C)[C@@H](O[C@@H]3O[C@H](C)C[C@H](N(C)C)[C@H]3O)[C@@](C)(OC)C[C@@H](C)C(=O)[C@H](C)[C@@H]12)c1ccnc2ccccc12"
1
